// provenance: PubChem BioAssay (NCI)

System: OVCAR-3 ovarian
Procedure Summary: NCI-60 one-dose screen, 48 h (100 = growth as untreated, 0 = no growth, -100 = all killed)
Condition Summary: 10 µM unless noted
About 83,000 compounds went through this panel and 20% of them were active in at least one assay; those are over-represented in the sample as a whole.
Cut-off 90% on growth: below means 1, at or above means -1.

• O=C(Cc1ccccc1)NC(c1ccc(Cl)cc1)c1c(O)ccc2ccccc12 (stereo not given) = 1
• CC(=S)NC(=O)C(=O)/C=C1/NC(=O)C(=O)S1 = -1
• O=Nc1c(O)ccc2ccccc12.O=Nc1c(O)ccc2ccccc12.O=Nc1c([O-])ccc2ccccc12.[Fe+3] = -1

---

Test system: SF-539 CNS
Procedure Summary: NCI-60 one-dose screen, 48 h (100 = growth as untreated, 0 = no growth, -100 = all killed)
Condition Summary: 10 µM unless noted
This is part of a sample that, as a whole, favours compounds with a hit. Of some 83,000 tested, about 20% had one in any assay. Calls of active or inactive are those of the source. Rule for the calls: active = growth percent below 10; inactive = the rest.
Some molecules, each annotated with its measured growth.
Measurement Name: growth

- Brc1ccc(Nc2nc3ccccc3nc2Nc2ccc(Br)cc2)cc1: -8.61% (active)
- COC(=O)/C(CCC=C(C)C)=C1\[C@@H](OC(C)=O)C[C@@]2(C)[C@H]1C[C@@H](O)[C@H]1[C@@]3(C)CC[C@H](NCCCNCCCCNCCCN)[C@@H](C)[C@@H]3CC[C@@]12C: 66% (inactive)
- CN1CCN(c2nc(Nc3ccc(O)cc3)nc3ccccc23)CC1: 47.2% (inactive)
- O=C(CCc1nnc2sc(-c3ccc(Cl)cc3Cl)nn12)c1nc2ncccc2[nH]1: -21% (active)

---

Tested on: HOP-92 NSCLC
Procedure Summary: NCI-60 one-dose screen, 48 h (100 = growth as untreated, 0 = no growth, -100 = all killed)
Condition Summary: 10 µM unless noted
The panel holds about 83,000 compounds, 20% with a hit somewhere; the sample as a whole holds those more often.
Measurement Name: growth (%)

* Cn1c(/C=C(\C#N)c2cccc(C(F)(F)F)c2)nc2c(N3CCOCC3)nc(Cl)nc21 | -77.4
* CSc1nc2c(c(=O)[nH]1)N=C1c3ccccc3C(=O)C1C(c1ccc(F)cc1)N2 (stereo not drawn) | 58.3
* COc1ccc(C2Nc3nc(OC)n(C)c(=O)c3N=C3c4ccccc4C(=O)C32)cc1 (stereo not drawn) | 81.9
* Cc1ccc2nc(NC(=O)CSC(=S)N3CCN(c4ccccc4)CC3)sc2c1 | 82.6
* O=CCCCC(O)C=O (stereo not drawn) | 107
* O=C(O)c1cn(C2CC2)c2cc(N3CCN(C(=O)C[n+]4ccccc4)CC3)c(F)cc2c1=O | 98.5
* O=C(Nc1ccc(I)cc1F)c1cc(Br)ccc1O | -10.8
* O=C1N=c2ccccc2=C1c1sc(=Nc2ccccc2)n(Nc2ccccc2)c1O | 102
* COc1cc(/C=C2\CN(C)C/C(=C\c3cc(CN4CCCC4)c(O)c(OC)c3)C2=O)cc(CN2CCCC2)c1O | 66.8
* CCOc1ccc(-c2nonc2NC(=O)c2cccc(C)c2)cc1OCC | -8.71
* Oc1c(C(Nc2ccccn2)c2cccc(Oc3ccccc3)c2)ccc2cccnc12 (stereo not drawn) | -86.9
* Cc1cc2c(c(C)c1Cl)C(=O)/C(=C/c1ccco1)O2 | 129
* O=c1oc2ccc(Br)cc2c(=O)n1-c1ccc(Br)cc1F | -13.7
* Fc1cccc(COc2ccc(Nc3ncnc4onc(-c5ccccc5)c34)cc2)c1 | 46.3
* CCOc1cc2c(cc1OCC)C(c1cc(C)c(O)c(C)c1)NCC2 (stereo not drawn) | 88.5
* CCC1=C[C@@H]2CN(C1)Cc1c([nH]c3ccccc13)[C@@](C(=O)OC)(c1cc3c(cc1OC)N(C)[C@H]1[C@@](O)(C(=O)OC)[C@H](OC(C)=O)[C@]4(CC)[C@@H]5C[C@@H]5CN5CC[C@]31[C@@H]54)C2 | 21.2
* CC1=CCC(OC(=O)C(C)(C)CCC(O)(C(=O)OC2(C(C)C)CCC3(C)OC3C2)C(C)C)(C(C)C)CC1 (stereo not drawn) | -71.7
* CCN1C(=O)N(CC)C2C1NN=c1s/c(=C3\C(=O)N(CC(C)(C)C)c4ccccc43)c(=O)n12 (stereo not drawn) | 78.6
* COc1cc([C@@H]2NC(=O)NC(C)=C2C(=O)Nc2nc(-c3ccc(Cl)cc3)cs2)ccc1O | 103
* Cc1ccc2cccc(Oc3ccc(Nc4ncnc5onc(-c6ccccc6)c45)cc3)c2n1 | 26.3
* COc1ccccc1C(=O)/C=C/c1ccccc1 | 80.6
* COc1ccc(S(=O)(=O)N(Cc2ccc3c(n2)C=CC(C)(C)O3)C2CCC2)cc1OC | -19.6
* CCCCNc1nc(NC(C)(C)C)nc(NC(C)(C)C)n1 | 48.6
* O=S(=O)(Nc1ncccn1)c1ccc(NC2Nc3nc4ccccc4nc3S2)cc1 (stereo not drawn) | 105
* COc1ccc(/C=C2/SC(=O)N(CC(=O)N3CCN(c4cc5c(cc4F)c(=O)c(C(=O)O)cn5C4CC4)CC3)C2=O)cc1 | 113
* COc1ccc(-c2nsc3c2NC(=O)CC3c2ccsc2)cc1 (stereo not drawn) | 71.9
* O=C(Nc1ccc(F)c(Cl)c1)Nc1ccc(Cl)c(Cl)c1 | 65.1
* c1ccc2cc3c(Nc4ccc(N5CCOCC5)cc4)ccnc3cc2c1 | 104
* Cc1sc2ncn(CC(=O)Nc3ccc(S(N)(=O)=O)cc3)c(=O)c2c1C | 102
* O=C(c1nc2ccccc2[nH]1)C1C(c2cccc([N+](=O)[O-])c2)C2CC3CCCCC3N2[C@@]12C(=O)Nc1cc(Cl)ccc12 (stereo partly drawn) | 16.9
* O=C1/C(=C/c2ccc(O)cc2)COc2ccc(O)cc21 | 124
* CN1C(=O)N(C)C2C1NN=c1s/c(=C\c3ccc([N+](=O)[O-])cc3)c(=O)n12 (stereo not drawn) | 77.6
* CC1=C(C(=O)OCC2CCN(C(=O)OC(C)(C)C)CC2)[C@H](c2cccc(Br)c2)C2=C(CC(C)(C)CC2=O)N1 | 61.7
* O=C(c1ccccc1)N(C(=S)NCCc1ccc(Cl)cc1)c1ccc(Cl)cc1 | 76.3
* CCOC(=O)C1(C(=O)OCC)N=C(c2ccccc2)C=C1c1ccccc1 | 66.5
* CC1=C(C(=O)OCC2CCN(C(=O)OC(C)(C)C)CC2)[C@@H](c2cccc(C#N)c2)C2=C(CC(C)(C)CC2=O)N1 | 79.9
* O=C(NCc1ccccc1)C1CN(c2ccc(Cl)cc2)N(c2ccc(Cl)cc2)C1=O (stereo not drawn) | 86.5
* O=C(NC1CCN(Cc2ccccc2)CC1)c1cc(C(=O)NC2CCN(Cc3ccccc3)CC2)cc(C(=O)NC2CCN(Cc3ccccc3)CC2)c1 | 54.3
